Some compounds, each annotated with its measured fold change.
assay: sensitizers of A549 cells to miR-34 induction, primary screen, imaging, A549 dox-inducible miR-34, nuclei and caspase counts (AID 1347080); conditions: A549 miR-34 inducible, Hoechst nuclei count, 48 h; measured here: relative caspase fold change +Dox/-Dox
Form field (numeric): enter value without unit.

COC(=O)C[C@](O)(CCCC(C)(C)O)C(=O)O[C@@H]1C(OC)=C[C@]23CCCN2CCc2cc4c(cc2[C@H]13)OCO4    1.16
C=C1CC2C3C=C(C)C4=CC(=O)CC[C@]4(C)C3CC[C@]2(C)[C@@]1(OC(C)=O)C(C)=O (stereo partly specified)    1.45

// query fold change value for entry CC1c2cccc(O)c2C(O)=C2C(=O)[C@]3(O)C(O)=C(C(N)=O)C(=O)[C@@H](N(C)C)[C@@H]3C[C@@H]21 (stereo partly specified)
// result 1.44

// query fold change value for entry C[C@]12CCC3c4ccc(O)cc4CCC3C1C[C@@H](O)[C@@H]2O (stereo partly specified)
// result 1.18

// query fold change value for entry C[C@]12C=CC(=O)C=C1CCC1C2C(=O)C[C@@]2(C)C1CC[C@]2(O)C(=O)CO (stereo partly specified)
// result 2.55

// query fold change value for entry CC1CC2C3CCC4=CC(=O)C=CC4(C)[C@@]3(Cl)C(O)CC2(C)C1(O)C(=O)CO (stereo partly specified)
// result 1.07

// query fold change value for entry CC1(C)SC2C(NC(=O)Cc3ccccc3)C(=O)N2C1C(=O)O (stereo unspecified)
// result 2.34

// query fold change value for entry `Cc1ccc(S(=O)(=O)NCl)cc1`
// result 0.99

// query fold change value for entry `N[C@@H](CO)c1ccccc1`
// result 0.434

// query fold change value for entry Cc1onc(-c2ccccc2)c1C(=O)NC1C(=O)N2[C@@H]1SC(C)(C)[C@@H]2C(=O)O (stereo partly specified)
// result 1.09

// query fold change value for entry `CCOc1ccc(Nc2nc(-c3c(C)nc4ccccn34)cs2)cc1`
// result 1.27

// query fold change value for entry CC(=CCC1=C(C)C(=O)c2ccccc2C1=O)CCCC(C)CCCC(C)CCCC(C)C (stereo unspecified)
// result 2.78

// query fold change value for entry `CC1(C)S[C@@H]2[C@H](NC(=O)[C@H](C(=O)O)c3cccs3)C(=O)N2[C@H]1C(=O)O`
// result 0.673

* * *

target: Calcium-activated potassium channel subunit alpha-1 (Homo sapiens) + Leucine-rich repeat-containing protein 26 (Homo sapiens) (UniProt Q12791+Q2I0M4); assay: modulators of BK channel variants, profiling panel, selectivity assay, cell-based, U2OS BacMam, thallium flux, beta subunits (AID 1259406); details: F380Y/Slo1WT/gamma1, at 30 µM;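 also: initial slope of Thallos dye fluorescence rise after thallium is added; log ratio against the mean of 0.3% DMSO vehicle wells on the same plate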
Sequence (Q2I0M4 whole entry, looked up, one chain of several): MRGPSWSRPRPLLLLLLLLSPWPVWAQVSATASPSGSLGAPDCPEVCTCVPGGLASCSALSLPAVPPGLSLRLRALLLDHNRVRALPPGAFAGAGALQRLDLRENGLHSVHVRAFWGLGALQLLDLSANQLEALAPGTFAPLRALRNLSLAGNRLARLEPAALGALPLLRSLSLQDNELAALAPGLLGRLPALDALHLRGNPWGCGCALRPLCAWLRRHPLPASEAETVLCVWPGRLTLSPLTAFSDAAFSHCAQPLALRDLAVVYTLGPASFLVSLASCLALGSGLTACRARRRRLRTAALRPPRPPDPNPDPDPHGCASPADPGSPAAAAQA
Would you please tag the item yes when its log fold change Tl+ flux is -0.02 or above, and no when it is below?

C1=CC=CC(C2C=CC=CC=C2)C=C1    no
N#Cc1ccc(NCCc2ccccn2)c([N+](=O)[O-])c1    yes
CC1CC2C3CCC4=CC(=O)C=CC4(C)C3(F)C(O)CC2(C)C1(O)C(=O)CO (configuration not stated)    yes
CNCC[C@H](Oc1cccc2ccccc12)c1cccs1    yes

// query Check this compound for log fold change Tl+ flux at or above -0.02: CCCCCCCCCCCCSC(=S)NCC1CCCO1 (configuration not stated)
// result yes

// query Check this compound for log fold change Tl+ flux at or above -0.02: CN1[C@@H]2CC[C@H]1CC(OC(=O)C(CO)c1ccccc1)C2 (some centres not stated)
// result yes

// query Check this compound for log fold change Tl+ flux at or above -0.02: `Cc1cc(N=CN(C)C)c2ccccc2n1`
// result yes

// query Check this compound for log fold change Tl+ flux at or above -0.02: `COC(=O)c1sc(-c2ccc(Cl)cc2)cc1NC(=O)c1ccc2nsnc2c1`
// result yes

// query Check this compound for log fold change Tl+ flux at or above -0.02: `O=S(=O)(Cc1nc(-c2ccc3c(c2)OCCO3)cs1)c1ccccn1`
// result no

// query Check this compound for log fold change Tl+ flux at or above -0.02: `N#Cc1cccc(CSc2ncnc(N)n2)c1`
// result yes

* * *

assay: ovarian cancer cell viability with rucaparib, profiling panel, oncology-focused library, rucaparib conditional (AID 1508598); settings: patient-derived ovarian cancer cells, CellTiter-Glo viability, 144 h; at 0.313 µM; OCI-P5x cells; with rucaparib 20 µM; stronger effect = lower value; 100% = cells with rucaparib alone
Some molecules, each annotated with its measured viability.
# number only, unit % dropped from output

Reference set, count: 4
O=C(O)Cc1cccc(OCCCN(Cc2cccc(C(F)(F)F)c2Cl)CC(c2ccccc2)c2ccccc2)c1    93.8
O=c1cc(-c2cccc3c2Sc2ccccc2S3)oc(N2CCOCC2)c1    91.8
CN(C)CCCn1cc(C2=C(c3c[nH]c4ccccc34)C(=O)NC2=O)c2ccccc21    108
Nc1nc(Cl)nc2c1ncn2[C@H]1C[C@H](O)[C@@H](CO)O1    88.9

Now turn to the next molecule.
// query viability value for entry C[C@@H](N)C1CCC(C(=O)Nc2ccncc2)CC1 (stereo not given in full)
// result 99.7

* * *

assay: differential killing of epithelial or mesenchymal cells, primary screen, imaging, PC-3E GFP, TEM4-18 mCherry, co-culture (AID 1345086); conditions: imaging cell counts, measured here: epithelial PC-3E GFP cell survival, at 1 µM;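 also: cells exposed to compound for 72 h before imaging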
Square brackets hold non-standard residues; d marks the D form. Side chains are listed from the residue outwards. Peptide text beside a SMILES is read from it. * marks the point of attachment. X2 = CCC(C)C(N)C1=NC(C(=O)*)CS1; Orn = NCCC[CH](N)C(=O)O
Quantity name: normalised cell number
Form field (numeric): enter value without unit.

Reference set, count: 4
CCC(C)C(N)C1=NC(C(=O)NC(CC(C)C)C(=O)NC(CCC(=O)O)C(=O)NC(C(=O)NCCCCC2NC(=O)C(CC(N)=O)NC(=O)C(CC(=O)O)NC(=O)C(Cc3cnc[nH]3)NC(=O)C(Cc3ccccc3)NC(=O)C(C(C)CC)NC(=O)C(CCCN)NC2=O)C(C)CC)CS1 (stereo not drawn) (cyclo(DNK([Ile-Glu-Leu-X2])[Orn]IFH); configuration not given here)    1.23
O=C1N=NC(=O)N1c1ccccc1    1.19
CCO[C@H]1OC(C(=O)OC)C(OC(=O)CCC(=O)O)[C@H](OC(=O)c2ccccc2)[C@@H]1OC(=O)c1ccccc1 (stereo not given in full)    1.18
Cc1cc2nc3c(=O)[nH]c(=O)nc-3n(C[C@@H](O)[C@@H](O)[C@@H](O)COP(=O)(O)O)c2cc1C    1.03

// query normalised cell number value for entry `COc1cc(OC)c2c(=O)c(OC)c(-c3ccccc3)oc2c1`
// result 1.32

* * *

assay: viability rescue of complex I mutant cybrids, primary screen, cell-based, galactose medium, ATP luminescence (AID 1645843); conditions: complex I mutant cybrid cells, 72 h, stronger effect = higher value;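 also: positive z means more ATP and so rescue of galactose-driven cybrid death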
Would you please tag the item t when its z-score is 1 or above, and f when it is below?

Solved entries:
O=C(O)CCC/C=C\C[C@@H]1[C@@H](/C=C/[C@@H](O)COc2cccc(Cl)c2)[C@H](O)C[C@@H]1O    f
CN(CCO)CC(O)Cn1cnc2c1c(=O)n(C)c(=O)n2C (configuration not stated) (tested in a mixture with another compound)    f
Fc1ccc(Cl)cc1-c1nc(Nc2ccncc2)c2nccnc2n1    t
O=C(/C=C/c1c(C(=O)O)[nH]c2cc(Cl)cc(Cl)c12)Nc1ccccc1    t
CNCC[C@@H](Oc1ccccc1C)c1ccccc1    f

// query Check this compound for z-score at or above 1: `Nc1ccn([C@@H]2CS[C@H](CO)O2)c(=O)n1`
// result t

* * *

Some compounds, each annotated with its measured growth inhibition.
test: antimalarial activity against Dd2 strain (AID 2302);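 also: 0% = DMSO untreated growth and 100% = chloroquine plus artemisinin killed control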; details: P. falciparum Dd2 in RBCs, LDH growth readout, 72 h; at 2 µM; stronger effect = higher value
# number only, unit % dropped from output

Reference set, count: 5
CCCCN(CCCC)Cc1cc(N(C)c2ccc([N+](=O)[O-])cn2)ccc1O    98
NC(=O)c1ccsc1NC(=O)CNC(c1ccccc1)c1ccc(Cl)cc1 (configuration not stated)    89
O=C(C=Cc1cccc(F)c1)NC1CCC(CCN2CCc3ccc(-c4cnccn4)cc3CC2)CC1 (configuration not stated)    67
COc1cccc2cc(C(=O)N[C@@H](CC(C)C)C(=O)N[C@H](/C=N/NC(=O)OC(C)(C)C)CC(C)C)oc12    57
CC(C)(CNC(=O)C1CCN(Cc2ccc(Cl)cc2)CC1)c1nc(-c2ccc(Cl)c(O)c2)c(-c2ccncc2)[nH]1    83

// query growth inhibition value for entry `COc1cc(Cc2cnc(N)nc2N)cc(OCCCCC#N)c1OC`
// result -1

// query growth inhibition value for entry `Nc1ncc(-c2ccc3nccc(-c4ccncc4)c3c2)cc1S(=O)(=O)N1CCCCC1`
// result 100

// query growth inhibition value for entry `CCc1cccc(-c2cc(=N)n(C)c3nc(N)[nH]c(=O)c23)c1`
// result 28

// query growth inhibition value for entry `Cc1cccc(CN2CCC(CNC(=O)c3cc4c(-c5ccccc5F)nn(C)c4s3)CC2)c1`
// result 15

// query growth inhibition value for entry `CN(C)CCOc1ccc(-c2cc(-c3ccnc(N)n3)c(-c3ccc(Cl)c(O)c3)o2)cc1`
// result 91

// query growth inhibition value for entry `CCc1ccc(Cc2cnc3nc(N)nc(N)c3c2C)cc1CC`
// result -1

// query growth inhibition value for entry `CN1CCC[C@H]1COc1ccc(CN2CC[C@H](NC(=O)c3ccc(Cl)c(Cl)c3)C2)cc1Br`
// result 20

// query growth inhibition value for entry `Oc1ccc(-c2cncc(NCc3ccc(F)c(F)c3)c2)cc1`
// result 80

// query growth inhibition value for entry `CCNC(=O)CCc1cccc(Br)c1`
// result 54

// query growth inhibition value for entry `Cc1cccc2[nH]c(-c3ccc(-c4cccc(NC(=O)c5cncn5C)c4)cc3)nc12`
// result 1

// query growth inhibition value for entry `Cc1cc(N[C@@H](CC(C)C)C(=O)NCc2cccc(F)c2)nc(Nc2ccccc2)n1`
// result 76
